Values from paper PMC9654039

biological target: FUS∆LCD (UniProt P35637 164-526); test: fluorescence titration (Cy3-protein intensity); apparent Kd; concentration as dNMP (nucleotides), not molecules; Hill fit n 1.12; Buffer, salt, pH and temperature of the fluorescence titrations are not given in the material; concentrations are in nucleotide units. Poly(ADP-ribose) (Kd,app); settings: protein: recombinant; tags: Cy3 label (sulfo-cyanine 3 NHS ester); blunt; one-nucleotide gap between strands 1 and 2, opposite G of strand 3
Sequence (P35637 164-526): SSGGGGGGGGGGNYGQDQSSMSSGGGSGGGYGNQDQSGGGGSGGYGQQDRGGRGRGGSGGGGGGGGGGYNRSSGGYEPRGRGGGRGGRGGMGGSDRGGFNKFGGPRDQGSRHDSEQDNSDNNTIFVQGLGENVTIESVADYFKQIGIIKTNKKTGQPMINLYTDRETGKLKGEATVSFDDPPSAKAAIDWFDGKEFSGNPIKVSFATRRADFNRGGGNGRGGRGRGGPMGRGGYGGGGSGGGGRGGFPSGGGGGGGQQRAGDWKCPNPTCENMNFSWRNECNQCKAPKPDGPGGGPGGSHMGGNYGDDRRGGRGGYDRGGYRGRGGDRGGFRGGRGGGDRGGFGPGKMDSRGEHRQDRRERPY
quantity.name: pKd
As a rule, pKd stands for the negative log10 of the concentration, concentration in M.

Task item: Which measured pKd value corresponds to dsDNA (30 bp, one-nucleotide gap) (dsDNA, 5'-phosphate on S4 (downstream strand); 3'-OH on S3) DNA 1: GGGTTGGTTTGCG DNA 2: ATTCACAGTTCTCCGC DNA 3: GCGGAGAACTGTGAATGCGCAAACCAACCC ?
Reply: 5.59
